Tested on: human skin fibroblasts
assay method text: High-throughput cell migration assay (Oris Pro Cell Migration Assay plate) / standardized viability
Type: cell-based
condition context: Table 2; additional Npas2 expression suppressors
Structures can show the parent of a compound that is named as a salt.
readout name: Migration (standardized viability) Z Score
Simply state the number, no unit and no words.

Here are 5 compounds together with their reported answers.
* Clc1ccc(COC(Cn2ccnc2)c2ccc(Cl)cc2Cl)cc1 (centres unmarked) [Econazole nitrate] | 0.805
* NC(=O)OCC(O)COc1ccc(Cl)cc1 (centres unmarked) [Chlorphensin carbamate] | −0.157
* O=C(O)COC(=O)Cc1ccccc1Nc1c(Cl)cccc1Cl | 0.666
* O=C(OC1C[C@@H]2CC3C[C@H](C1)N2CC3=O)c1c[nH]c2ccccc12 (some centres unmarked) [Dolasetron mesilate] | −1.91
* CCOC(=O)[C@H](CCc1ccccc1)N[C@@H](C)C(=O)N1CCC[C@H]1C(=O)O [MS-1501214, enalapril maleate] | −1.53

State its Migration (standardized viability) Z Score for this compound: "Cn1cnc2c1c(=O)[nH]c(=O)n2C"
−0.6

State its Migration (standardized viability) Z Score for this compound: "CC[C@H](C)C(=O)O[C@H]1C[C@H](O)C=C2C=C[C@H](C)[C@H](CC[C@@H](O)C[C@@H](O)CC(=O)O)[C@H]21"
0.64

State its Migration (standardized viability) Z Score for this compound: "C[C@]12CC[C@@H]3c4ccc(O)cc4CC[C@H]3[C@@H]1CCC2=O"
−2.56

====

System: human skin fibroblasts
assay method text: High-throughput cell migration assay (Oris Pro Cell Migration Assay plate) / standardized viability
Assay type: cell-based
condition context: Table 2; additional Npas2 expression suppressors
Where a name gives a salt, the structure may show the parent alone.
Threshold check on Migration (standardized viability) Z Score: strictly below 0.2 is Fulfilled; on or above 0.2 is Not fulfilled.

Does O=[N+]([O-])O[C@@H]1CO[C@H]2[C@@H]1OC[C@@H]2O [Isosorbide mononitrate] have Migration (standardized viability) Z Score strictly under 0.2?
Not fulfilled

Does OCC(O)CN1CCN(c2ccccc2)CC1 (racemic) [Dropropizine (R,S)] have Migration (standardized viability) Z Score strictly under 0.2?
Fulfilled

Does COc1cccc2c1C(=O)c1c(O)c3c(c(O)c1C2=O)C[C@@](O)(C(C)=O)C[C@@H]3O[C@H]1CC(N)[C@H](O)C(C)O1.Cl (some centres unmarked) [Daunorubicin hydrochloride] have Migration (standardized viability) Z Score strictly under 0.2?
Fulfilled

Does CNCC[C@@H](Oc1ccccc1C)c1ccccc1 [SAM001246626, Atomoxetine hydrochloride] have Migration (standardized viability) Z Score strictly under 0.2?
Fulfilled
